Here, each record is paired with measured IC50 data.
- target_desc: hNaV1.7 (Homo sapiens)
- Construct: expressed in transfected cells; host or cells: HEK293
- assay_info: QPatch NaV1.7 assay (whole-cell patch clamp, QPatch16x)
- Format: cell-based
- test_parameters: holding voltage −90 mV (most channels closed), HEK293-hNaV1.7 cells, read-out: QP Nav1.7 −90 mV pIC50 (converted)
Counter-ions that a name gives are not always drawn.

Sample records with IC50:
>>> reported_measurement("CCOc1ccc(F)c(-c2ccnc([C@H]3CC[C@]4(CCN(C)C4=O)N3)c2)c1 [Example 146, hydrochloride]")
"31.6 µM"
>>> reported_measurement("CN1[C@@H](c2cc(-c3ccc(C(F)(F)F)cc3)ccn2)CC[C@]12CCCNC2=O [Example 232, hydrochloride]")
"7.94 µM"

Asked: Could you share what IC50 was measured for O=C1NCC[C@]12CC[C@H](c1cc(-c3ccc(C(F)(F)F)cc3)ccn1)N2 [Example 115, hydrochloride] , tested on hNaV1.7 (Homo sapiens)?
Given back: 31.6 µM

Asked: Continue with Cc1cc(-c2ccc(C(F)(F)F)cc2)cc([C@H]2CC[C@@]3(CCNC3=O)N2C)n1 [Example 229, hydrochloride]
Given back: 63.1 µM

Asked: Continue with CC1(C)C[C@]2(CC[C@H](c3cc(-c4ccc(C(F)(F)F)cc4)ccn3)N2)C(=O)N1 [Example 46, hydrochloride]
Given back: 10 µM

###

Here, each record is paired with measured IC50 data.
- target_desc: hNaV1.7 (Homo sapiens, UniProt Q15858)
- Construct: expressed in transfected cells; host or cells: HEK293
- Sequence (Q15858 whole entry): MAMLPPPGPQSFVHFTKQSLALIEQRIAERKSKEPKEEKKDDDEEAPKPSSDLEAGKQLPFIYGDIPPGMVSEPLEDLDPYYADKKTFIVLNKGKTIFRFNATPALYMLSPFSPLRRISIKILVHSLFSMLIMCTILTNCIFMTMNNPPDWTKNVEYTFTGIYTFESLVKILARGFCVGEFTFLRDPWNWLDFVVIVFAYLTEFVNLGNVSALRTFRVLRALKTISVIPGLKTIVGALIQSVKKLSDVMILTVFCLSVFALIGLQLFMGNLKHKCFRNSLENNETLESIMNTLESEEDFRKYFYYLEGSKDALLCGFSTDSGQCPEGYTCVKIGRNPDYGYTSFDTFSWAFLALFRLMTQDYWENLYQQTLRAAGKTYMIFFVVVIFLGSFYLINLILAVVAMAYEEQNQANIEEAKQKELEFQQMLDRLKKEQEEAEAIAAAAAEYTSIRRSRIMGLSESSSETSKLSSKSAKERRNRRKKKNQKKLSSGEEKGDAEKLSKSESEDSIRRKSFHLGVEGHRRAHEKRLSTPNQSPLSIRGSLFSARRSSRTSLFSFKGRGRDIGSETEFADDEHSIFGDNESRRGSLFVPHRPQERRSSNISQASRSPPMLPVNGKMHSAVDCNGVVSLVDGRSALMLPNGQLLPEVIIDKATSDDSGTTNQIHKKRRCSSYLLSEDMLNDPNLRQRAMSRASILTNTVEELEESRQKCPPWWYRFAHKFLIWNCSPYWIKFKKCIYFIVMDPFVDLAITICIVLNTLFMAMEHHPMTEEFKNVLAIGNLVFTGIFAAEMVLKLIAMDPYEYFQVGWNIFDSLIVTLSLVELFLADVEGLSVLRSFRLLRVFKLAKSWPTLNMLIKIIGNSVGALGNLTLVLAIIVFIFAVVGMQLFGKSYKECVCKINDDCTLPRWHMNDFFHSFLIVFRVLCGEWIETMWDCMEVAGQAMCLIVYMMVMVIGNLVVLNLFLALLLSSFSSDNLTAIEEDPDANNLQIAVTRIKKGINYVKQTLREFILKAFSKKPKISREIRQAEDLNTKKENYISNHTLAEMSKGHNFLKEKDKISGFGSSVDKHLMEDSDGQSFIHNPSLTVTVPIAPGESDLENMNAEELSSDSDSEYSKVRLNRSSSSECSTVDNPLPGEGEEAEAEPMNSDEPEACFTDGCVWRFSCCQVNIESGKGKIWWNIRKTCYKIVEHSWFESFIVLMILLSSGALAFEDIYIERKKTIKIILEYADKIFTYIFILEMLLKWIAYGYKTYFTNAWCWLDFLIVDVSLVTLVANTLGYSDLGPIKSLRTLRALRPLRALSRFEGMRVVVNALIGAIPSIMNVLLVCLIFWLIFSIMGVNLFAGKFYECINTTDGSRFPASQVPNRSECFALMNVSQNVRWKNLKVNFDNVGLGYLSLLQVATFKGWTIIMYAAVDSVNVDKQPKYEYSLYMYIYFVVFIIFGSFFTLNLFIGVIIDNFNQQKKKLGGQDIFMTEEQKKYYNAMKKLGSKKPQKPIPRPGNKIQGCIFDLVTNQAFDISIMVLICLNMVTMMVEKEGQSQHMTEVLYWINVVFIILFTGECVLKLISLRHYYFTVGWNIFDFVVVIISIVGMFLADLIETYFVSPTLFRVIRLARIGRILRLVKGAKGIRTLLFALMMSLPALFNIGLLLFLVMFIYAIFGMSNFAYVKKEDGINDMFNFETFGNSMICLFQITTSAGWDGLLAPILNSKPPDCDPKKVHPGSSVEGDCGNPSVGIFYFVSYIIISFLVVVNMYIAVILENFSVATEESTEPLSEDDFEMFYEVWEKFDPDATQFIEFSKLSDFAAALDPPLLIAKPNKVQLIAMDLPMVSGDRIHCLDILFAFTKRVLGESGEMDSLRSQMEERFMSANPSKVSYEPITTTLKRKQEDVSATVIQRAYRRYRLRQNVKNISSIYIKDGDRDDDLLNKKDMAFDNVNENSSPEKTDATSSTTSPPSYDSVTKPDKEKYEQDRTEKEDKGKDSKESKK
- assay_info: QPatch NaV1.7 assay (whole-cell patch clamp, QPatch16x)
- Type: cell-based
- test_parameters: holding voltage V1/2 SSI (half of channels inactivated), HEK293-hNaV1.7 cells, read-out: QP Nav1.7 SSI vhalf pIC50 (converted)
Structures can show the parent of a compound that is named as a salt.
Answers without a unit are incomplete; give the number and then its unit.

Sample records with IC50:
>>> reported_measurement("COc1cnc([C@@H]2CC[C@]3(CCN(C)C3=O)N2)cc1-c1ccc(C(F)(F)F)cc1 [Example 153, hydrochloride]")
"12.6 µM"
>>> reported_measurement("Cc1cc(-c2cccc(OC(F)(F)F)c2)cc([C@H]2CC[C@@]3(CCN(C)C3=O)N2)n1 [Example 127, hydrochloride]")
"12.6 µM"
>>> reported_measurement("Cc1cc(-c2cc(C(F)(F)F)ccc2C#N)cc([C@@H]2CC[C@]3(CCN(C)C3=O)N2)n1 [Example 21, hydrochloride]")
"31.6 µM"
>>> reported_measurement("Cc1cnc([C@@H]2CC[C@@]3(CCN(C)C3=O)N2)cc1-c1ccc(C(F)(F)F)cc1 [Example 40, hydrochloride]")
"1.58 µM"
>>> reported_measurement("CCOc1c(F)cccc1-c1ccnc([C@H]2CC[C@@]3(CCN(C)C3=O)N2)c1 [Example 158, hydrochloride]")
"63.1 µM"
>>> reported_measurement("CN1CCC[C@@]2(CC[C@@H](c3cc(-c4ccc(F)cc4)ccn3)N2)C1=O [Example 72, hydrochloride]")
"20 µM"

Asked: Give its IC50 value. Item: O=C1NCC[C@]12CC[C@H](c1cc(-c3cccc(OC(F)(F)F)c3)ccn1)N2 [Example 117, hydrochloride]
Given back: 0.398 µM
